TESTED_TARGET: ALR2 (Homo sapiens, UniProt P15121)
ENDPOINT: pKd
Quick note: pKd means taking -log10 of the concentration in moles per liter.

Query: Field request: pKd | item: NC1=NC(=O)/C(=C2\CCNC(=O)c3[nH]ccc32)N1
Reply: 4.90

* * *

TESTED_TARGET: ALR2 (AKR1B1, aldose reductase) (Homo sapiens)
Construct: The plasmid (pET28b, Novagen) containing the open reading frame of the human ALR2 gene; hexa-histidine (cleaved yes)
PROTOCOL_DESCRIPTION: ALR2 enzyme assay (in vitro)
ASSAY_CONDITIONS: recombinant ALR2, DL-glyceraldehyde substrate, NADPH, PBS pH 6.2, 10 min at 25 °C, OD340nm; read-out: IC50 of ALR2 inhibitory activity
ENDPOINT: IC50

Query: Field request: IC50 | item: NC1=NC(=O)/C(=C2/CCNC(=O)c3[nH]ccc32)N1 [Compound 14]
Reply: 13.1 µM

Ref: paper PMC9320028
